# Tested Target: PPIA (Homo sapiens, UniProt P62937)
# Construct: Full length PPIA (residues 1-165) with an N-terminal 6×his-yBBR-TEV tag; 6×his-yBBR-TEV (N); made in house; host or cells: E. coli BL21 (DE3) CodonPlus RIPL
# Sequence (P62937 whole entry, the tested form may be a part): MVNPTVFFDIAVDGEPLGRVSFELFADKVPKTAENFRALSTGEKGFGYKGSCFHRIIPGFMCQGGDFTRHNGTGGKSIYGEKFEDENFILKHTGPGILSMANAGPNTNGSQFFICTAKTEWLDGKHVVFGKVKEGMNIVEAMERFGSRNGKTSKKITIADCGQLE
# Method Notes: Phage Library Screening with NGS, PPIA
# Type: binding
# Condition Description: target concentration 300
Property Name: phage screen counts, Target Concentration 300

1. DPAQLNCHVAAFFCFQS
2. PTCHVQAWYCW
3. PFCHIEAYYCW
4. PNCHVEAWYCI
Enquiry: Sequence the entries by phage screen counts, Target Concentration 300, beginning with the highest number. Would you mind listing the labels in the order asked for?
Return: 1, 3, 4, 2
(1: 27, 3: 14, 4: 1, 2: 0)
